system: PRKCH; conditions: concentration: 1 μM, replicates: in singlicate; n = 1;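 further: KINOMEscan kinase panel screen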
observable: %Inh (%)
Field: numeric (%). Do not append units.

Item under review: COC(=O)c1c(-c2ccccc2)c2cc(Br)ccc2c(=O)n1Cc1ccc(NC(=O)CCC(=O)O)cc1 . Reported %Inh?
7

====

test system: TIE1; settings: concentration: 1 μM, replicates: in singlicate; n = 1
# key: entry, value: %Inh
The figure you give is taken to be in %; do not add the unit.

Before answering, review these 3 worked examples.
1) O=C(Nc1n[nH]c2nc(-c3ccccc3)c(Br)cc12)C1CC1    14
2) COc1ccc(-n2cnc3c(N)ncnc32)cc1    23
3) OCCCNc1nccc(-c2c(-c3cccc(C(F)(F)F)c3)nn3cc(C(F)(F)F)ccc23)n1    0

Can you look up the measured %Inh of CCn1c(-c2ccoc2)nc2cnccc21 for me?
0

====

tested on: CLK4; conditions: concentration: 1 μM, replicates: in singlicate; n = 1
observable: %Inh (%)
Answer format: numeric, % implied, no suffix.

1) COc1cc2ncn(-c3cc(OCCCc4ccccc4)c(C(N)=O)s3)c2cc1OC    9
2) Cc1nnc(-c2ccc3ncn(-c4ccc(S(C)=O)cc4)c3c2)o1 (stereo not shown)    40
3) COc1cc2ncn(-c3cc(OCc4ccc(S(C)(=O)=O)cc4)c(C(N)=O)s3)c2cc1OC    0
4) COc1cc2nccc(Nc3cccc(Oc4ccccc4)c3)c2cc1OC.Cl    0
5) Cc1ccc(Oc2ccc(Nc3ncnc4cc[nH]c34)cc2C)cn1    24

Provide value of %Inh for this record tested with CLK4: COc1ccc(Nc2nccc(N3CCC(NS(=O)(=O)c4ccc(NC(C)=O)cc4)C3)n2)cc1 (stereo not shown)
27

Find %Inh (CLK4) for the entry Cc1ccc(-c2ccc3c(ccc4sc5c(c43)NC[C@@H](C)N=C5N(C)C)n2)cn1
0

Provide the documented %Inh with CLK4 as the system for Cc1nnc(-c2ccc(C)c(-c3ccc(C(=O)O)cc3)c2)o1
0

Request body: readout %Inh, system CLK4, query O=C1NC(=O)C(c2ccccc2)=C1Nc1cccc(O)c1 . Return the value.
10

Give recorded %Inh with CLK4 for the following compound: Nc1ncnc2c1ncn2-c1cccc(F)c1
0

====

Listing of recorded %Inh by entry.
tested on: TYRO3; details: concentration: 1 μM, replicates: in singlicate; n = 1

Examples with their reported %Inh follow.
1) COc1cccc(-n2cnc3c(N)ncnc32)c1 [SKF-97416]    0%
2) Cc1cccc(-c2nc(Nc3ccc4c(cnn4C)c3)c3ccccc3n2)n1 [GW876731]    5%
3) COc1cc2ncn(-c3cc(OCc4ccncc4Br)c(C(N)=O)s3)c2cc1OC [GW854278]    11%
4) CCS(=O)(=O)c1ccc(OC)c(Nc2ncc(-c3ccc(F)cc3)o2)c1.Cl [GW591947]    4%
5) COc1ccc(-n2cnc3c(N)ncnc32)cc1 [SKF-97236]    0%
6) COc1cc2nccc(Nc3cccc(Oc4ccccc4)c3)c2cc1OC.Cl [GW284543]    0%
7) FC(F)(F)c1ccc(-c2ncn(CCCN3CCOCC3)c2-c2ccncc2)cc1 [SB-217780]    0%
8) O=C(Nc1n[nH]c2nc(-c3ccccc3)c(Cl)cc12)C1CC1 [SB-734909]    0%

Hello, I am looking for reported %Inh with TYRO3 for C[C@@H]1CC[C@H](C(=O)NC2CCCCC2)CN1c1cc(-c2ccc3c(N)n[nH]c3c2)nc(N)n1 [GSK2291363] . Could you help?
0%

Query %Inh on TYRO3 for COc1cc2ncn(-c3cc(OCCCc4ccccc4)c(C(N)=O)s3)c2cc1OC [GSK205189]
0%

# query: %Inh | item Cl.NS(=O)(=O)c1cccc(Nc2cc(-c3ccc(F)cc3)n[nH]2)c1 [GW824645] | system: TYRO3
0%

====

test system: DYRK2; conditions: concentration: 1 μM, replicates: in singlicate; n = 1
observable: %Inh

1. O=C(Nc1ccc2c(c1)OCO2)NC1CCN(c2ccnc(NCc3ccc(F)cc3)n2)CC1    5%
2. COc1ccc(Nc2nccc(N3CCC(NS(=O)(=O)c4ccc(NC(C)=O)cc4)C3)n2)cc1 (centres unmarked)    3%
3. O=c1cc(N2CCOCC2)nc2n(Cc3ccc(F)c(Cl)c3)ccn12    0%
4. Cc1cc(Nc2nc(-c3cccc(C)n3)nc3ccccc23)ccn1    0%

Notebook: pull reported %Inh for DYRK2, entry Cc1cccc(-c2nc(Nc3ccc4c(cnn4C)c3)c3ccccc3n2)n1
11%

// fetch DYRK2 %Inh for Cc1ccccc1COc1cc(-n2cnc3cc(Cl)ccc32)sc1C(N)=O
19%

Give DYRK2 %Inh for O=C(NCc1cccs1)c1cc(C(=O)c2c(Cl)cccc2Cl)c[nH]1
0%

For DYRK2, provide %Inh of Fc1cccc(CSc2nnc(-c3ccc4c(c3)CCO4)o2)c1 please.
7%

====

Listing: %Inh of selected compounds
tested on: CDK11; construct: gene CDK19; details: concentration: 1 μM, replicates: in singlicate; n = 1
# value in %; strip the unit string

Below: 7 compounds and their reported %Inh.
1) Cc1nnc(-c2ccc3ncn(-c4ccc(S(C)=O)cc4)c3c2)o1 (centres unmarked)    0
2) Cl.NS(=O)(=O)c1cccc(Nc2cc(-c3ccc(F)cc3)n[nH]2)c1 [GW824645]    3
3) Cc1c(Cn2c(C)nn3c(=O)cc(N4CCO[C@H](C)C4)nc23)cccc1C(F)(F)F [GSK2373690]    14
4) CCn1c(-c2ccoc2)nc2cnccc21 [SB-733887]    0
5) COc1ccc(-c2cc3c(C)nc(N)nc3n([C@H]3CC[C@H](O)CC3)c2=O)cn1    0
6) C[C@@H]1CC[C@H](C(=O)NC2CCCCC2)CN1c1cc(-c2ccc3c(N)n[nH]c3c2)nc(N)n1 [GSK2291363]    7
7) Nc1ncnc2c1ncn2-c1cccc(F)c1 [SKF-97560]    0

Read the next record carefully.
Give recorded %Inh with CDK11 for the following compound: CCC(=O)c1c(-c2ccccc2)c2cc(Cl)ccc2c(=O)n1Cc1cc(S(C)(=O)=O)n(CCC(C)(C)O)n1
14

====

// reported %Inh per item
tested on: TAOK3; conditions: concentration: 1 μM, replicates: in singlicate; n = 1
API: value field is a number in %; no unit string.

Example entries and their recorded answers appear below.
1) Cn1c(=O)c(F)c(Nc2ccc(I)cc2F)c2c(=O)n(OC[C@H](O)CO)cnc21    0
2) COc1cc(Nc2ccnc3ccc(C(F)(F)F)cc23)cc(OC)c1OC    0
3) COc1cc(Nc2nccc(N3CCC(NC(=O)C(C)c4ccc(Cl)cc4)C3)n2)cc(OC)c1OC (centres unmarked)    0
4) O=C(NCCNc1ccnc(Nc2ccc(F)cc2)n1)Nc1ccc2c(c1)OCO2    0
5) OCCCNc1nccc(-c2c(-c3cccc(C(F)(F)F)c3)nn3cc(C(F)(F)F)ccc23)n1    0
6) CN1C(=O)C(Nc2cc(Cl)c(O)c(Cl)c2)=C(c2ccc(Cl)cc2)C1=O    0
7) Cc1nn2c(=O)cc(N3CCOCC3)nc2n1Cc1cccc(Cl)c1Cl    0
8) COc1cccc(C2=C(Nc3cccc(C(=O)O)c3)C(=O)NC2=O)c1    0

Which %Inh is listed for CCc1ccc(-c2ccc3c(c2)-c2nn(C)cc2S(=O)(=O)N3C)cc1 ?
0

Query: %Inh; subject: Cl.NS(=O)(=O)c1cccc(Nc2cc(-c3ccc(F)cc3)n[nH]2)c1
13

Which %Inh value is on record for COc1ccc(Nc2nccc(N3CCC(NS(=O)(=O)c4ccc(NC(C)=O)cc4)C3)n2)cc1 (centres unmarked) ?
2

What does the data say about its %Inh? Entry: COc1cccc(-n2cnc3c(N)ncnc32)c1
28

Given the entry CC(C)(C)c1ccc(C(=O)Nc2cn3cc(-c4ccccc4)ccc3n2)cc1 , report its measured %Inh.
0

Name the reported %Inh value associated with the compound O=C(NCc1cccs1)c1cc(C(=O)c2c(Cl)cccc2Cl)c[nH]1
0

Report %Inh for COc1ccc(-c2coc3ccc(-c4nnc(SCc5cccc(C#N)c5)o4)cc23)cc1 please.
0

Entry under review: Cc1nnc(-c2ccc3ncn(-c4ccc(S(C)=O)cc4)c3c2)o1 (centres unmarked) . Reported %Inh?
96.2

Please look up its %Inh: CCC(=O)c1c(-c2ccccc2)c2cc(Cl)ccc2c(=O)n1Cc1cc(S(C)(=O)=O)n(CCC(C)(C)O)n1
0

====

Catalogue of molecules with associated %Inh
tested on: FLT3-autoinhibited; settings: concentration: 1 μM, replicates: in singlicate; n = 1
Quick reminder: number only, in %, skip the unit.

1. CCCNC(=O)Nc1ccc(Oc2ncnc3ccn(C)c23)cc1    2
2. O=C(Nc1ccc2c(c1)OCO2)NC1CCN(c2ccnc(NCc3ccc(F)cc3)n2)CC1    0
3. COc1ccc(-n2cnc3c(N)ncnc32)cc1    34
4. COc1cc2ncn(-c3cc(OCCCc4ccccc4)c(C(N)=O)s3)c2cc1OC    0
5. CCc1nc(-c2cccc(C)c2)c(-c2ccncc2)s1    0

%Inh lookup needed for COc1cc(Nc2ccnc3ccc(C(F)(F)F)cc23)cc(OC)c1OC , thanks.
0

Returns the measured %Inh for the input molecule. Input: CCC(=O)c1c(-c2ccccc2)c2cc(Cl)ccc2c(=O)n1Cc1cc(S(C)(=O)=O)n(CC(F)F)n1
0
